system: PAR2 (HT-29 cells, trypsin activation) (Homo sapiens)
Construct: host or cells: HT-29 cells
Sequence (P55085 26-397): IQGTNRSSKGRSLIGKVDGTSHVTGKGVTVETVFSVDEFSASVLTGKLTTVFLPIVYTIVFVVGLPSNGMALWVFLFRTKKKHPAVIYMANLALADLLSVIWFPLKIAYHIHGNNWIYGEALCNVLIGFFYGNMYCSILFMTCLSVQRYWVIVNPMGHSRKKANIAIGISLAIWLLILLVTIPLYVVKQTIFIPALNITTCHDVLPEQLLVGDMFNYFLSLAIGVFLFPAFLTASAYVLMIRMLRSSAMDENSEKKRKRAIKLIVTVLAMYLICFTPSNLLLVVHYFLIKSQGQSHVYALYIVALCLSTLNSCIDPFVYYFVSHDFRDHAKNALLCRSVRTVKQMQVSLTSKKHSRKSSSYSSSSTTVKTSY
protocol-text: Ca FLIPR TETRA assay, ANTAGONIST mode, stimulation with 3.1 U/mL trypsin
Type: cell-based
condition-notes: HT-29 cells, antagonist mode, stimulation with 3.1 U/mL trypsin

- compound: "C=C(C)c1cc(-c2ccc(F)cc2)nn2cc(C(=O)N3CCN(C)C(=O)C3(C)C)nc12"
  system: "PAR2 (HT-29 cells, trypsin activation) (Homo sapiens)"
  IC50 (nM): 54.7
- compound: "Cc1n[nH]c(C(=O)N2CCN(C(=O)c3cn4nc(-c5ccc(F)cc5)cc(C(C)C)c4n3)C(C)(C)C2)n1"
  system: "PAR2 (HT-29 cells, trypsin activation) (Homo sapiens)"
  IC50 (nM): 7.1
- compound: "CC1(C)CN(C(=O)C2CC(O)(C(F)(F)F)C2)CCN1C(=O)c1cn2nc(-c3ccc(F)cc3)cc(C(F)(F)F)c2n1 (stereo not shown)"
  system: "PAR2 (HT-29 cells, trypsin activation) (Homo sapiens)"
  IC50 (nM): 2.5
- compound: "CC(C)c1cc(-c2ccc(F)cc2)nn2cc(C(=O)N3CCN(C(=O)c4ccn[nH]4)CC3(C)C)nc12"
  system: "PAR2 (HT-29 cells, trypsin activation) (Homo sapiens)"
  IC50 (nM): 6.4
- compound: "CC(C)(C)c1cc(-c2ccc(F)cc2)nn2cc(C(=O)N3CCN(C(=O)C4CCCO4)CC3(C)C)nc12 (stereo not shown)"
  system: "PAR2 (HT-29 cells, trypsin activation) (Homo sapiens)"
  IC50 (nM): 2.9
- compound: "Cc1nc(N2CCN(C(=O)c3cn4nc(-c5ccc(F)cc5)cc(C(C)(C)C)c4n3)C(C)(C)C2=O)c[nH]1"
  system: "PAR2 (HT-29 cells, trypsin activation) (Homo sapiens)"
  IC50 (nM): 4.2
- compound: "Cc1cc(-c2cc(C(C)C)c3nc(C(=O)N4CCN(CC(C)(C)O)C(=O)C4(C)C)cn3n2)ccc1F"
  system: "PAR2 (HT-29 cells, trypsin activation) (Homo sapiens)"
  IC50 (nM): 46.5
- compound: "CC(C)c1cc(-c2ccc(F)cc2)nn2cc(C(=O)N3CCN(C(=O)c4ccon4)CC3(C)C)nc12"
  system: "PAR2 (HT-29 cells, trypsin activation) (Homo sapiens)"
  IC50 (nM): 2.8
- compound: "CCN1CCN(C(=O)c2cn3nc(-c4ccc(F)cc4)cc(C(C)(C)C)c3n2)C(C)(C)C1=O"
  system: "PAR2 (HT-29 cells, trypsin activation) (Homo sapiens)"
  IC50 (nM): 4.5
- compound: "CC(C)(C)c1cc(-c2ccc(C(F)(F)F)cc2)nn2cc(C(=O)N3CCN(C(=O)c4ncccn4)CC3(C)C)nc12"
  system: "PAR2 (HT-29 cells, trypsin activation) (Homo sapiens)"
  IC50 (nM): 1.5
